src = ChEMBL document CHEMBL1201862

- Test system: M14
- EXPERIMENTAL_DETAILS: NCI tumour cell line growth inhibition, 48 h
Calls of active or inactive are those of the source. Rule as the data show it: active = GI50 up to about 1.1 µM and inactive = higher.
ENDPOINT: GI50

So, "O=[N+]([O-])c1ccc(S(=O)(=O)N=Ic2ccccc2)cc1" ? Its GI50 was > 100 µM (inactive)

So, "Cn1cccc1/C=C/c1cc(Br)c(/C=C/c2cccn2C)cc1Br" ? Its GI50 was 19 µM (inactive)

So, CC1(S)CC2C(CC1Sc1ccccc1)C2(C)C (stereo not given) ? Its GI50 was > 100 µM (inactive)

So, "CCOC(=O)c1cc(C(=O)O)c(=O)n2c1[nH]c1ccccc12" ? Its GI50 was > 100 µM (inactive)

So, "CN(C)CCNC(=O)c1cccc(CO)c1[N+](=O)[O-]" ? Its GI50 was > 100 µM (inactive)
